Give percent of cells in the positive quadrant for every item shown.
Biological target: T1, human PD-1 expressed on cells (human, UniProt Q15116 25-288)
T1 construct: whole, on cells; also called hPD-1; 293 cell line stably expressing human PD-1
T1 sequence (Q15116 25-288): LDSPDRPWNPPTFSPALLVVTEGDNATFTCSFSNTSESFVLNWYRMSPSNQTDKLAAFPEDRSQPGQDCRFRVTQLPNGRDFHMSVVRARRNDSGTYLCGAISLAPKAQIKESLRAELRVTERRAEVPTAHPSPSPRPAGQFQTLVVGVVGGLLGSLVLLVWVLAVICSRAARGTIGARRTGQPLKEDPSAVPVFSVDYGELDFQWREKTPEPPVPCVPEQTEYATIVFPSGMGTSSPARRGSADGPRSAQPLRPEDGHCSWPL
Assay: flow cytometry on cells overexpressing hPD-1
Report only the number, with the unit % understood.

Per the record, T15-02 (antibody, V domains shown) VH: EVQLVESGGGLVKPGGSLRLSCAASGFTFSSFGMSWVRQAPGKGLELVATIYSNGDYTYYPDSVKGRFTVSRDNAKNSLYLQMNSLRAEDTAVYYCARYYGNYGGYFDYWGQGTLVTVSS VL: AIQMTQSPSSLSASVGDRVTITCKASQSVSNDVAWYQQKPGKAPKLLIYYASNRYTGVPSRFSGSGSGTDFTLTISSLQPEDFATYYCQQDFWYPPTFGGGTKVEIK has percent of cells in the positive quadrant of 96.9

Per the record, T15-03 (antibody, V domains shown) VH: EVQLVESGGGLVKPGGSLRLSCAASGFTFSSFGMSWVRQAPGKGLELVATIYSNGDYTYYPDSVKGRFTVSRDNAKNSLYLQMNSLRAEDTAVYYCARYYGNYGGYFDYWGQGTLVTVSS VL: AIQMTQSPSSLSASVGDRVTITCKASQSVSNDVAWYQQKPGKAPKLLIYYAYMRYTGVPSRFSGSGSGTDFTLTISSLQPEDFATYYCHQDYSSPPTFGGGTKVEIK has percent of cells in the positive quadrant of 96.7

The origin of these recorded values is patent US20250270320A1.
